Where do these numbers come from? They come from paper PMC6497270.

# testedSystem: RUNX1 WT (RUNT-containing);CBFβ (Homo sapiens;Homo sapiens?, UniProt Q01196;Q13951 1-181;1-141, |)
# Sequence (Q01196 1-181, chain 1 of 2): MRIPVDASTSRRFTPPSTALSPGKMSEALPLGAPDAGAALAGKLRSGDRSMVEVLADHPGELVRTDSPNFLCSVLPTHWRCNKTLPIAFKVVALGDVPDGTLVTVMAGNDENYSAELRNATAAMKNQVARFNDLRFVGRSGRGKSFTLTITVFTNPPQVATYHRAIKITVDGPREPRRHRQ
# Sequence (Q13951 1-141, chain 2 of 2): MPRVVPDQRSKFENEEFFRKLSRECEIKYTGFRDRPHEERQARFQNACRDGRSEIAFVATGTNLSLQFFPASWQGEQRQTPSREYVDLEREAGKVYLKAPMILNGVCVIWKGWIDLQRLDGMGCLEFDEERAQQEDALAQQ
# runDescription: ITC; RUNX1:CBFβ 1:2; ITC: 20 uM RUNX1 in cell, 100 uM DNA in syringe, 10 mM HEPES-NaOH pH 7.5, 180 mM NaCl, 0.005% Tween 20; temperature stated as 277 K (Methods) but 25 °C (Results)
# conditionDescription: protein: recombinant;recombinant; tags: N-terminal His6;; copies: 1;1; (21 bp)
measuredMetric: pKd
Recall that pKd is obtained by taking minus log10 of the concentration measured in molar.

# lookup: pKd of CSF-1R promoter 21 bp DNA (dsDNA) DNA 1: CAAACTCTGTGGTTGCCTTGC DNA 2: GCAAGGCAACCACAGAGTTTG
6.64
